experiment: Cytotoxicity assay (resazurin); type: cell-based; settings: human, HEK293 cells, mean n = 2
Below, each of the molecules is paired with its reported IC50 at 20 h value.

// known answers, use as guide
COc1ccc2[nH]cc(C(=O)NCCCNCCCCCCCCNCCCNC(=O)c3c[nH]c4ccc(OC)cc34)c2c1 [Compound 14d]    > 38 µM
Cc1cccc2c(C(=O)NCCCNCCCCCCCCCCCCNCCCNC(=O)c3c[nH]c4c(C)cccc34)c[nH]c12.O=C(O)C(F)(F)F.O=C(O)C(F)(F)F [Compound 18f]    > 37 µM

**Query** Hello, please tell me recorded IC50 at 20 h for this one: O=C(NCCCNCCCCCCCCCCNCCCNC(=O)c1c[nH]c2ccccc12)c1c[nH]c2ccccc12.O=C(O)C(F)(F)F.O=C(O)C(F)(F)F [Compound 12e]
**Result** > 40 µM

**Query** Quote IC50 at 20 h reported for O=C(NCCCNCCCCCCCNCCCNC(=O)c1c[nH]c2c(F)cccc12)c1c[nH]c2c(F)cccc12 [Compound 16c] please.
**Result** > 40 µM

---

experiment: Cytotoxicity assay (resazurin); assay type: cell-based; details: human, HEK293 cells, mean n = 2
Entries annotated with measured IC50 at 20 h

// below: answered compounds
COc1cccc2c(C(=O)NCCCNCCCCCCCCCCNCCCNC(=O)c3c[nH]c4c(OC)cccc34)c[nH]c12.O=C(O)C(F)(F)F.O=C(O)C(F)(F)F [Compound 17e]    > 37 µM
COc1ccc2[nH]cc(C(=O)NCCCNCCCCCCNCCCNC(=O)c3c[nH]c4ccc(OC)cc34)c2c1 [Compound 14b]    > 40 µM
COc1cccc2c(C(=O)NCCCNCCCCCCCCNCCCNC(=O)c3c[nH]c4c(OC)cccc34)c[nH]c12 [Compound 17d]    > 38 µM
O=C(NCCCNCCCCCCCCNCCCNC(=O)c1c[nH]c2ccc(Br)cc12)c1c[nH]c2ccc(Br)cc12 [Compound 13d]    > 34 µM
COc1ccc2[nH]cc(C(=O)NCCCNCCCCCCCCCCNCCCNC(=O)c3c[nH]c4ccc(OC)cc34)c2c1.O=C(O)C(F)(F)F.O=C(O)C(F)(F)F [Compound 14e]    > 37 µM
O=C(NCCCNCCCCCCNCCCNC(=O)c1c[nH]c2ccc(Br)cc12)c1c[nH]c2ccc(Br)cc12 [Compound 13b]    > 35 µM

**Query** Name the recorded IC50 at 20 h of the compound listed here: Cc1ccc2[nH]cc(C(=O)NCCCNCCCCCCCCNCCCNC(=O)c3c[nH]c4ccc(C)cc34)c2c1 [Compound 15d]
**Result** > 40 µM

**Query** Indicate its recorded IC50 at 20 h; the compound in question is Cc1ccc2[nH]cc(C(=O)NCCCNCCCCCCCNCCCNC(=O)c3c[nH]c4ccc(C)cc34)c2c1 [Compound 15c]
**Result** > 41 µM

**Query** Quote IC50 at 20 h reported for COc1ccc2[nH]cc(C(=O)NCCCNCCCCNCCCNC(=O)c3c[nH]c4ccc(OC)cc34)c2c1 [Compound 14a] please.
**Result** > 41 µM

**Query** // fetch IC50 at 20 h given entry O=C(NCCCNCCCCNCCCNC(=O)c1c[nH]c2ccccc12)c1c[nH]c2ccccc12 [Compound 12a]
**Result** > 45 µM
